- EXPERIMENTAL TARGET: NaV1.6 (Homo sapiens (Human))
- Sequence (Q9UQD0 whole entry, looked up): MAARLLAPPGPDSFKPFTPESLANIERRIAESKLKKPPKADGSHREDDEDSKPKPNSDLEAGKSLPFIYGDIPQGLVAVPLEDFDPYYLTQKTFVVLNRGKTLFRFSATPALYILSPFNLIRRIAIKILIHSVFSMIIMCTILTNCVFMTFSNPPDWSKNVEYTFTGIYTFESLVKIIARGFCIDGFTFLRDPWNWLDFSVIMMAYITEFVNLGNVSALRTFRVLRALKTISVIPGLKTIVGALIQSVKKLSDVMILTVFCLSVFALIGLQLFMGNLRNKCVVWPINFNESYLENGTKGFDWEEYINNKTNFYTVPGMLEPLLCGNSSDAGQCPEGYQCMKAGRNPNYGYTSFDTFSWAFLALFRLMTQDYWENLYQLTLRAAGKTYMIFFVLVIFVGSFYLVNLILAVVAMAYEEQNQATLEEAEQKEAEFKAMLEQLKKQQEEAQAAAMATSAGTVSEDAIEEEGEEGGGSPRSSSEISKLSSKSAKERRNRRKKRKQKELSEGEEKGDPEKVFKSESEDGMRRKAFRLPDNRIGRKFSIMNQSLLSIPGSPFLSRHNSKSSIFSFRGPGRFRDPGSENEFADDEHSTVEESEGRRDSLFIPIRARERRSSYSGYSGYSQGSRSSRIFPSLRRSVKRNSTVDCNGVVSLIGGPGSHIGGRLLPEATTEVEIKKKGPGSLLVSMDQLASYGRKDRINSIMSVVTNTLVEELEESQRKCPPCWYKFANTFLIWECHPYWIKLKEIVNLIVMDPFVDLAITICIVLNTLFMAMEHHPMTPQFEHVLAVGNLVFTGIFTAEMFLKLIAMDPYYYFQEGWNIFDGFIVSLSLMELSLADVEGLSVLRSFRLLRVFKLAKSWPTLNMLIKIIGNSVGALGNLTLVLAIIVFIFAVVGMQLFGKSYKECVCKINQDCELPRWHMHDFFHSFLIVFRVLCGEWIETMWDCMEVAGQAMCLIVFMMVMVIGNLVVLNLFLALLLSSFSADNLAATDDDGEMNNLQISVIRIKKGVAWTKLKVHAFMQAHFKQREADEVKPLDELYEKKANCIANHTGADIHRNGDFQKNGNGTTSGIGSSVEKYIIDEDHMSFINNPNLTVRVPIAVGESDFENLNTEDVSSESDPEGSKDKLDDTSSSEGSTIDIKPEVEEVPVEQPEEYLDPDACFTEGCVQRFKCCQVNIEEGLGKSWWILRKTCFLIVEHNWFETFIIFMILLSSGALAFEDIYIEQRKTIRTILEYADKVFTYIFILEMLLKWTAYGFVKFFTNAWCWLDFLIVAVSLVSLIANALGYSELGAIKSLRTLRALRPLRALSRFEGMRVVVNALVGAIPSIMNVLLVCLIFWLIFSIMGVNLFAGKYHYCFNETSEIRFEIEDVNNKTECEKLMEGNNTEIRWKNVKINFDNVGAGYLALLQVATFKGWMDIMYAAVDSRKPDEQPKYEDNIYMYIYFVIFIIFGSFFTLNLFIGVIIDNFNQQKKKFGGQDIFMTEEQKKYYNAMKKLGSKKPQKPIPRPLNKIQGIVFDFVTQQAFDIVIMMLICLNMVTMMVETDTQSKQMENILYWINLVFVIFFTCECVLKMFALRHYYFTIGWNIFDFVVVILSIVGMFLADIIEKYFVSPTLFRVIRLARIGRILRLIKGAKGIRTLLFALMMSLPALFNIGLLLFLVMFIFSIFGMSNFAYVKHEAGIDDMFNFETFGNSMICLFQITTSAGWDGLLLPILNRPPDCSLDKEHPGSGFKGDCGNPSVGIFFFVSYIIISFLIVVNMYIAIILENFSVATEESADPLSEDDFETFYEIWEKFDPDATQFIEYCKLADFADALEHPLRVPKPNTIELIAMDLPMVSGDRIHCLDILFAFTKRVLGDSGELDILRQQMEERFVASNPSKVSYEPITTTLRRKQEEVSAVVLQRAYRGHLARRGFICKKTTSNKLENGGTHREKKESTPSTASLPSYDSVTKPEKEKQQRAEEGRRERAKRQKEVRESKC
- Sequence (Q07699 whole entry partner, looked up): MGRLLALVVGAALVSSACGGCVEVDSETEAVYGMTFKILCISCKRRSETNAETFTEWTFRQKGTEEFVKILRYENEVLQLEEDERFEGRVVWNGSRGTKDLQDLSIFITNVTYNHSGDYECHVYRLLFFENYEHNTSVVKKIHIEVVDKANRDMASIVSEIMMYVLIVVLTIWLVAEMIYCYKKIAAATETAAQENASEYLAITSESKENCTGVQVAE
- ASSAY PROTOCOL: Sodium Influx Assay (Flux), NaV1.6
Structures can show the parent of a compound that is named as a salt.
IC50 by entry:
MEASUREMENT KIND: IC50 (nM)

{"columns": ["COMPOUND", "EXPERIMENTAL TARGET", "UNIT STRING", "ENDPOINT VALUE"],
 "data": [
  ["C[C@@H]1CN(Cc2ccccc2F)CC[C@@H]1Oc1ccc(S(=O)(=O)Nc2nccs2)cc1Cl (relative stereo) [Example 10A]", "NaV1.6 (Homo sapiens (Human))", "nM", 1270],
  ["CN(c1ccc(S(=O)(=O)Nc2ncns2)cc1Cl)[C@H]1CCN(Cc2cc(F)cc(F)c2)C1 [Example 327, formate]", "NaV1.6 (Homo sapiens (Human))", "nM", 1040],
  ["Cc1ccc(CN2CC[C@H](N(C)c3cc(F)c(S(=O)(=O)Nc4cscn4)cc3Cl)C2)s1 [Example 189, formate]", "NaV1.6 (Homo sapiens (Human))", "nM", 1870],
  ["CN(c1cc(F)c(S(=O)(=O)Nc2cscn2)cc1Cl)[C@H]1CCN(CCc2ccccc2)C1 [Example 179, formate]", "NaV1.6 (Homo sapiens (Human))", "nM", 4890],
  ["CN(c1cc(F)c(S(=O)(=O)Nc2cscn2)cc1Cl)[C@H]1CCN(Cc2ccc3[nH]ccc3c2)C1 [Example 190, formate]", "NaV1.6 (Homo sapiens (Human))", "nM", 2330],
  ["C[C@H](c1cc(C2CC2)ccc1F)N1CCC(Oc2ccc(S(=O)(=O)Nc3cscn3)cc2Cl)CC1 (stereo in doubt) [Example 320]", "NaV1.6 (Homo sapiens (Human))", "nM", 3240],
  ["CN(c1cc(F)c(S(=O)(=O)Nc2cscn2)cc1Cl)[C@H]1CCN(Cc2cnn(Cc3ccccc3)c2)C1 [Example 165, formate]", "NaV1.6 (Homo sapiens (Human))", "nM", 3340],
  ["COc1cccnc1CN1CC[C@H](N(C)c2cc(F)c(S(=O)(=O)Nc3cscn3)cc2Cl)C1 [Example 176, formate]", "NaV1.6 (Homo sapiens (Human))", "nM", 740],
  ["C[C@@H](c1ccccc1)N1CCC(Oc2ccc(S(=O)(=O)Nc3nccs3)cc2Cl)CC1 [Example 58, 2,2,2-trifluoroacetate]", "NaV1.6 (Homo sapiens (Human))", "nM", 402],
  ["C[C@@H]1CN(Cc2ccccc2F)CC[C@H]1Oc1ccc(S(=O)(=O)Nc2nccs2)cc1Cl (relative stereo) [Example 10B]", "NaV1.6 (Homo sapiens (Human))", "nM", 1160],
  ["Cc1cccc(CN2CC[C@H](N(C)c3cc(F)c(S(=O)(=O)Nc4ncns4)c(F)c3Cl)C2)n1 [Example 297, 2,2,2-trifluoroacetate]", "NaV1.6 (Homo sapiens (Human))", "nM", 62],
  ["CN(c1cc(F)c(S(=O)(=O)Nc2cscn2)cc1Cl)[C@H]1CCN(Cc2cccc3cccnc23)C1 [Example 170, formate]", "NaV1.6 (Homo sapiens (Human))", "nM", 1620],
  ["Cc1c(OC2(C)CCN(Cc3ccccc3)C2)cc(F)c(S(=O)(=O)Nc2nccs2)c1F (racemic) [Example 228, 2,2,2-trifluoroacetate]", "NaV1.6 (Homo sapiens (Human))", "nM", 31]
]}
